B1: tRNA (parent)
chain: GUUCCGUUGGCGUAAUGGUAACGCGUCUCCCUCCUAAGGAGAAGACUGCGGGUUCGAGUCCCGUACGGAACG

- Variants of: B1
- ASSAY EXPLANATION: yeast fitness relative to wild type (ratio to wild type); higher = fitter; tRNA-Arg(CCU), competitive growth, 37 C, YPD
This sample holds only a part of the variants without activity.
For each of the variants below, state its yeast fitness.
One number for each entry.

Worked cases, answers included:
MUT | yeast fitness
G6C G12A U54C | 0.594
G17A A20G G41A | 0.593
U2A A37U | 0.689

Each variant below has a recorded value; state its yeast fitness.
1. C11U G48U
2. G12C A20C A43U
3. C11G G23C G25A
4. A20U G50A A57U C60G A65U
5. A45U G68C
6. U13G U32A C46U

1: 0.853; 2: 0.632; 3: 0.977; 4: 0.531; 5: 0.66; 6: 0.577
